The measured values listed here are drawn from patent US20230174596A1.

Reported Cellular IC50 values for a set of binders
Target: T1, human VEGF-A (human, UniProt P15692-4 34-135, limits assumed)
T1 sequence (looked up): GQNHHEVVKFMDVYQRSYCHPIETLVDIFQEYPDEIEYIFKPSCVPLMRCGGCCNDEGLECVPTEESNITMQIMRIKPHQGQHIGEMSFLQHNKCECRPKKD
Test: cell-based or functional assay
Respond with the bare value in nM.

[[record]]
binder = "GCNIMLPFWGCGRDFECFYECICQYYQSCG (designed binder) [VEGF_CKP9.54.90.62]"
test_result = 0.92

[[record]]
binder = "GCNIMLPFWGCGRDFECFINCICQYYQSCG (designed binder) [VEGF_CKP9.54.90.44]"
test_result = 1.16

[[record]]
binder = "GCNIMLPFWGCGRDFECMNQCICQYYQSCG (designed binder) [VEGF_CKP9.54.90.13]"
test_result = 0.96


Okay, now this binder:
### Prompt Item GCNIMLPYWGCGRDFECMNQCICQYYQSCG (designed binder) [VEGF_CKP9.54.90.13.F8Y] has what recorded Cellular IC50?
### Response 2.02
